Biological target: human recombinant-PDE5 (Homo sapiens, UniProt O76074)
Experiment: Inhibitory effect on cGMP-PDE (PDE5 IC50, one-step assay)
Settings: in vitro, 0.15 μM 8-[H3]-cGMP, 30 min incubation
measurement.kind: log10 IC50 (log10 of the value in nM)
Short version: log10 scale, IC50, nM.

## Input Enter recorded log10 IC50 with human recombinant-PDE5 (Homo sapiens, UniProt O76074) for CN1CC(=O)N2[C@H](c3ccc4c(c3)OCO4)c3[nH]c4cc(C(=O)O)ccc4c3C[C@H]2C1=O (racemic) here.
## Output 2.18

====

Listed here are molecules together with their documented pIC50.
Molecular target: human recombinant-PDE5 (Homo sapiens, UniProt O76074)
Assay: Inhibitory effect on cGMP-PDE (PDE5 IC50, one-step assay)
Conditions: in vitro, 0.15 μM 8-[H3]-cGMP, 30 min incubation
Entry type: numeric. Quantity: pIC50, the -log10 of concentration in molar units.

Recorded results for 2 molecules are shown here.
molecule | obs.value
COC(=O)c1ccc2c3c([nH]c2c1)[C@@H](c1ccc2c(c1)OCO2)N1C(=O)CN(C)C(=O)[C@H]1C3 (racemic) | 6.54
CN1CC(=O)N2[C@H](c3ccc4c(c3)OCO4)c3[nH]c4ccc(O)cc4c3C[C@@H]2C1=O (racemic) | 7.32

Next molecule, please.
## Input Query pIC50 for COc1ccc2[nH]c3c(c2c1)C[C@@H]1C(=O)N(C)CC(=O)N1[C@@H]3c1ccc2c(c1)OCO2 (racemic)
## Output 6.40

Hey, just so you know, these numbers are from patent US6872721B2.
